Here, each record is paired with measured melting point data.

Exercise: Give a short answer stating reported melting point for CC(=O)N1CCc2cc(CC(C)Br)ccc21 (stereo not given) .
Solution: 124 to 126 °C

Exercise: Please look at this compound and report its melting point: `O=c1cc(C(F)(F)F)[nH]n1-c1ccccc1`
Solution: 193 °C

Exercise: Could you please provide reported melting point for Cc1cccc(NC(=O)NC2N=C(c3ccccc3F)c3ccccc3N(Cc3ccsc3)C2=O)c1 (racemic) ? Thanks!
Solution: 221 to 223 °C

Exercise: Provide melting point value for the following compound: C=C(C)c1nn(-c2c(Cl)cc(C(F)(F)F)cc2Cl)cc1C1CC1(Br)Br (stereo not given)
Solution: 86.5 to 88.2 °C

Exercise: Indicate its recorded melting point; the compound in question is `CCCCCCCCCCCCn1nnc(NC2CCCCC2)n1`
Solution: 51 to 53 °C

Exercise: Assign melting point to the following record: `CC1(C)OC(=O)C(Sc2ccccc2)=C1c1ccc(S(C)(=O)=O)cc1`
Solution: 98 to 114 °C

Exercise: Provide melting point value for the following compound: Cc1cc2c(cc1C(C)SCC(N)=O)OCO2 (stereo not given)
Solution: 121 to 122 °C

Exercise: Given COC(=O)C1CC(C#N)(c2ccccc2Cl)CCC1=O (stereo not given) , respond with its melting point.
Solution: 113 to 118 °C

Exercise: Provide only the value of recorded melting point for `Cc1cccc(-c2ccc(=O)[nH]n2)c1`
Solution: 202 to 205 °C

Exercise: Answer with the recorded melting point for the compound listed here: `O=C(c1ccccc1)c1cc2c([N+](=O)[O-])c(O)c(O)cc2oc1=O`
Solution: 94 to 96 °C

Recorded values, source a melting point compilation (Tetko et al.; mined from patent text by program, amines drawn as free bases though some values may be those of a salt).
